Recorded measurements of % inhibition, one per entry
System: human PKK mRNA
protocol_summary: Antisense inhibition of human PKK mRNA in HepaRG cells, 1,000 nM, MOE/deoxy/cEt oligonucleotides (Example 3)
Type: cell-based
assay_context: HepaRG cells, electroporation with 1,000 nM antisense oligonucleotide, approx. 24 hours, PKK mRNA by RT-PCR (RTS3454), relative to untreated control cells; Table 25 experiment
Strand notation (5' to 3'): a small letter for the sugar, then the base; units joined by * are phosphorothioate-linked, units joined directly phosphodiester-linked; [ ] holds rarer units or linkages, { } end groups; capitals alone tell only the bases. e = 2'-O-(2-methoxyethyl) (MOE); k = constrained ethyl (cEt); [5mC] = 5-methylcytosine; d = 2'-deoxy (DNA)
reported_endpoint: % inhibition (%)

- 548206 (eG*eG*kT*d[5mC]*dA*dA*dT*d[5mC]*dT*dG*dA*d[5mC]*dT*kA*kG*eT; antisense) [compound 548206]: 45
- 548207 (e[5mC]*eT*kG*dG*dT*d[5mC]*dA*dA*dT*d[5mC]*dT*dG*dA*k[5mC]*kT*eA; antisense) [compound 548207]: 60
- 548162 (e[5mC]*e[5mC]*kT*d[5mC]*dG*d[5mC]*dA*dT*dT*dG*dT*d[5mC]*dA*kG*k[5mC]*e[5mC]; antisense) [compound 548162]: 25
- 548189 (e[5mC]*eA*kT*dG*dA*dA*d[5mC]*dA*dT*d[5mC]*d[5mC]*dT*dA*kT*k[5mC]*e[5mC]; antisense) [compound 548189]: 24
